Let's look at some binders and their measured pKi.
Target: T1, human NK1 receptor (human, UniProt P25103)
T1 chain: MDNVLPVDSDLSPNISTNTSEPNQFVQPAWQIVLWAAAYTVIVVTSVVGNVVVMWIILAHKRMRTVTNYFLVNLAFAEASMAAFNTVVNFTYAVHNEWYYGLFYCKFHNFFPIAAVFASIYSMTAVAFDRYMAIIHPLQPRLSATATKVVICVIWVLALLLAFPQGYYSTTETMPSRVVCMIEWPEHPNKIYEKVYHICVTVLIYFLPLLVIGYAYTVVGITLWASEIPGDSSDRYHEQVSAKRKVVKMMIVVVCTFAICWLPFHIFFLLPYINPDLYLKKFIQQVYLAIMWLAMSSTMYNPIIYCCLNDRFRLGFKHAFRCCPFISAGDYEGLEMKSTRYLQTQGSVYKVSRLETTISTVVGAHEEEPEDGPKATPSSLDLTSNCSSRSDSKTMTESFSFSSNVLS
Test: competition
Non-standard residues stand in square brackets, D forms with d. No end group written: not given here. *: point of attachment. NH(3,5-(CF3)2-benzyl) = FC(F)(F)c1cc(CN*)cc(C(F)(F)F)c1; Phe(4-F) = N[C@@H](Cc1ccc(F)cc1)C(=O)O; NMeF = CN[C@@H](Cc1ccccc1)C(=O)O; 4‑Ampa = not defined here; 4‑Apac = not defined here; 4Abz = Nc1ccc(C(=O)O)cc1; NHBn = c1ccc(CN*)cc1; Ahx = NCCCCCC(=O)O; βAla = NCCC(=O)O
Remember the convention: pKi equals -log10 of concentration in molar.

Solved entries:
>>> print(df.to_string())
                                     binder  reported_result
0  Y[dA]G[NMeF][4‑Apac]PLW-{NH(3,5-(CF3)2-benzyl)} (reading uncertain) [AKG177]             8.28
1  Y[dA]G[NMeF][4Abz]PLW-{NH(3,5-(CF3)2-benzyl)} [AKG176]             8.39
2  YAGFXPLW (D-Ala2, NMePhe4, Nle5; C-terminal NH-Bn(3',5'-(CF3)2)) [AKG112]             7.85
3  Y[dA]G[NMeF][βAla]PLW-{NH(3,5-(CF3)2-benzyl)} [AKG119]             9.03

Item Y[dA]G[NMeF]MPLW-NHBn [AKG106] : provide pKi 8.83

Item Y[dA]G[NMeF][4‑Ampa]PLW-{NH(3,5-(CF3)2-benzyl)} (reading uncertain) [AKG178] : provide pKi 8.46

Item Y[dA]G[Phe(4-F)]GPLW-{NH(3,5-(CF3)2-benzyl)} [AKG130] : provide pKi 8.81

Item Y[dA]G[NMeF]GPLW-{NH(3,5-(CF3)2-benzyl)} [AKG113] : provide pKi 7.82

Item Y[dA]G[NMeF][Ahx]PLW-{NH(3,5-(CF3)2-benzyl)} [AKG124] : provide pKi 8.91
